Entry source: PubChem BioAssay

- System: Inhibin beta A chain (activin A)
- PROTOCOL DESCRIPTION: INHBA (activin A) binders on microarrays, primary screen, biochemical, small-molecule microarray, 635 nm fluorescence scan (AID 1107);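 note: mouse activin A protein probed at 4.33 µg/mL on printed slides; score merges bound-protein fluorescence near 667 nm with spot signal-to-noise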
- CONDITIONS USED: small-molecule microarray binding, higher = more signal
Rule: Satisfied for composite z-score not less than 0.6, Not satisfied for anything less.

COMPOUND: O=C(NCCN1CCOCC1)C1N=C(c2ccc(OCCCO)cc2)N(c2ccccc2)O1 (centres undefined)
ASSIGNED CATEGORY: Not satisfied

COMPOUND: COCCOC(=O)N1C(=O)[C@@]2(c3ccccc31)[C@H](c1ccc(O)cc1)N1[C@H](c3ccccc3)[C@H](c3ccccc3)OC(=O)[C@H]1[C@@H]2C(=O)Nc1nc2ccccc2s1
ASSIGNED CATEGORY: Not satisfied

COMPOUND: CCCC[C@@H]1C[C@H]1[C@@H](NC(=O)c1ccccc1)c1ccc(C(=O)OC)cc1
ASSIGNED CATEGORY: Satisfied

COMPOUND: COc1ccc([Si](C)(C)[C@H]2[C@H](CCO)O[C@@]3(C(=O)N(Cc4ccc(N(C=O)c5ccccc5)cc4)c4ccccc43)[C@@H]2C)cc1
ASSIGNED CATEGORY: Not satisfied

COMPOUND: O=C1N[C@@H](Cc2ccccc2)C(=O)N2[C@@H]1C[C@@H](C(=O)O)[C@H]2c1cccc(OCCO)c1
ASSIGNED CATEGORY: Satisfied

COMPOUND: COc1ccc([C@H]2OC[C@@H]3C[C@@H](Cc4ccccc4)C(=O)N32)cc1
ASSIGNED CATEGORY: Not satisfied

COMPOUND: C#C[C@H](O[Si](C#Cc1ccc(Oc2ccccc2)cc1)(C(C)C)C(C)C)c1ccccc1
ASSIGNED CATEGORY: Not satisfied

COMPOUND: COCCOC(=O)N1C(=O)[C@@]2(c3cc(C#Cc4ccc(OC)cc4)ccc31)[C@H](c1ccc(OCCO)cc1)N1[C@H](c3ccccc3)[C@H](c3ccccc3)OC(=O)[C@H]1[C@@H]2C(=O)N1CCN(c2ncccn2)CC1
ASSIGNED CATEGORY: Not satisfied

COMPOUND: CN(C)CCCCCCNC(=O)[C@H]1C[C@H]2C(=O)N3CCC[C@H]3C(=O)N2[C@H]1c1ccc(O)cc1
ASSIGNED CATEGORY: Satisfied

COMPOUND: [N-]=[N+]=Nc1ccccc1[C@@H]1OC(c2ccc(OCCCO)cc2)=N[C@]1(CCS(=O)(=O)c1ccccc1)C(N)=O
ASSIGNED CATEGORY: Satisfied

COMPOUND: COc1cc2c(cc1O)C(C1CC1)N(Cc1sc3ccccc3c1Cl)CC2 (centres undefined)
ASSIGNED CATEGORY: Satisfied

COMPOUND: CCS[C@H]1[C@@H](C(=O)O)[C@H](c2ccc(C)cc2)N(S(=O)(=O)c2ccc(C)cc2)[C@@H]1CC
ASSIGNED CATEGORY: Satisfied
